Biological target: DGKζ (Homo sapiens (Human), UniProt Q13574)
Sequence (Q13574 whole entry): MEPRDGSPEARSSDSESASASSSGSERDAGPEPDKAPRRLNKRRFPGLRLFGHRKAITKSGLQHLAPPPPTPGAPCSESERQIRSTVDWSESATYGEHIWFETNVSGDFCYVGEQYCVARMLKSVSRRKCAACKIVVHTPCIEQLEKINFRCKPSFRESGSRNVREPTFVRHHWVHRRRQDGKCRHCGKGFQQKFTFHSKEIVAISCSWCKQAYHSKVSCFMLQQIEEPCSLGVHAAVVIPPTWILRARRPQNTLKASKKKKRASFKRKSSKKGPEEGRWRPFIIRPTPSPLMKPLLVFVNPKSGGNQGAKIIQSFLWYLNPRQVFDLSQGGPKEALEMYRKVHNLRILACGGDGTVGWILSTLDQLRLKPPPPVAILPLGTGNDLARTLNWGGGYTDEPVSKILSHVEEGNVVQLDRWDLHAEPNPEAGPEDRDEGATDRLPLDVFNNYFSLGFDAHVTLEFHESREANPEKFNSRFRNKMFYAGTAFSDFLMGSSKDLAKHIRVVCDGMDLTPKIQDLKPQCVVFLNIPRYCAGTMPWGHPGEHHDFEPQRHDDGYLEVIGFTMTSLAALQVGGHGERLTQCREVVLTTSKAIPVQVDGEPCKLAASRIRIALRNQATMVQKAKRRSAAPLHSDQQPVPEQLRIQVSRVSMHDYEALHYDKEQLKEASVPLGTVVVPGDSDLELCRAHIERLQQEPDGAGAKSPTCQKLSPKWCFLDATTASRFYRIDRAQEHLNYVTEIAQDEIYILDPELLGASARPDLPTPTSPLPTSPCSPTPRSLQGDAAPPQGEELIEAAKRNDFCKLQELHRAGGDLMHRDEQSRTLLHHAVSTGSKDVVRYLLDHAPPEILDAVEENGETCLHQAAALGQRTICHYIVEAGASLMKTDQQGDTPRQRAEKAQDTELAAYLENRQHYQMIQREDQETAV
Experiment: In vitro DGKζ inhibition assay (ADP-Glo)
Details: second column of Table A, head printed DGKα, presumably DGKζ; His-tagged human recombinant DGKζ 0.4 nM, 30 μM ATP, 20 μM DLG
Procedure: The DGKα and DGKζ biochemical reactions were performed using His-tagged human recombinant enzymes (Signal Chem, DGKα, #D21-10BH; DGKζ, #D30-1OH)) and DLG (Dilauroyl-sn-glycerol) lipid substrate (Signal Chem, #D430-59). […] For compound inhibition studies, 40 nL test compound in DMSO was added to wells of white polystyrene plates in 384-well (Greiner, #784075) or 1536-well format (Greiner, #782075). […] Plates were then read using Luminescence method on BMG PHERAstar FSX plate reader. […]
pIC50: −log10 of the molar value.
outcomeMeasure: pIC50

Exercise: Consider the compound CC[C@@H]1CN(c2nc(=O)n(C)c3c2nnn3C[C@H]2CCCO2)[C@@H](C)CN1C(c1ccc(Cl)cc1)C1CC(F)(F)C1 (stereo partly drawn) and give its measured pIC50.
Solution: ≥ 8.00

Exercise: Consider the compound CC[C@@H]1CN(c2nc(=O)n(C)c3c2nc(C)n3C[C@@H]2CCCO2)[C@@H](C)CN1[C@@H](c1ccc(C(F)(F)F)cc1)C(C)C and give its measured pIC50.
Solution: ≥ 8.00

Exercise: Consider the compound C[C@@H]1CN(c2nc(=O)n(C)c3c2cnn3C)[C@@H](C)CN1C(c1ccc(F)cc1)c1ccc(F)cc1 and give its measured pIC50.
Solution: < 6.00

Exercise: Consider the compound Cc1nc2c(N3C[C@@H](C)N([C@@H](c4ccc(C(F)(F)F)cc4)C(C)C)C[C@@H]3C)nc(=O)n(C)c2n1C[C@@H]1CCCO1 and give its measured pIC50.
Solution: ≥ 8.00

Exercise: Consider the compound Cc1nc2c(N3C[C@@H](C)N(C(c4ccc(F)cc4)c4ccc(F)cc4)C[C@@H]3C)cc(=O)n(C)c2n1C[C@@H]1CCCO1 and give its measured pIC50.
Solution: ≥ 8.00

Exercise: Consider the compound Cc1nc2c(N3C[C@@H](C)N([C@H](c4ccc5cc(F)ccc5n4)C(C)C)C[C@@H]3C)nc(=O)n(C)c2n1C[C@@H]1CCCO1 and give its measured pIC50.
Solution: ≥ 8.00

Exercise: Consider the compound CC[C@@H]1CN(c2nc(=O)n(C)c3c2nc(C)n3C[C@@H]2CCCO2)[C@@H](C)CN1[C@H](CC)c1ccc(C(F)(F)F)cc1 and give its measured pIC50.
Solution: ≥ 8.00

Exercise: Consider the compound Cc1nc2c(N3C[C@@H](CO)N(C(c4ccc(F)cc4)c4ccc(F)cc4)C[C@@H]3C)nc(=O)n(C)c2n1C[C@@H]1CCCO1 and give its measured pIC50.
Solution: ≥ 8.00

Exercise: Consider the compound CC[C@@H]1CN(c2nc(=O)n(C)c3c2nnn3C[C@H]2CCCO2)[C@@H](C)CN1[C@@H](CC)c1ccc(Cl)cc1 and give its measured pIC50.
Solution: ≥ 8.00

Exercise: Consider the compound CC[C@@H]1CN(c2nc(=O)[nH]c3c2nc(C)n3C[C@@H]2CCCO2)[C@@H](C)CN1C(c1ccc(Cl)cc1)C1CC(F)(F)C1 (stereo partly drawn) and give its measured pIC50.
Solution: ≥ 7.00

Exercise: Consider the compound CC(C)[C@H](c1ccc(Cl)cc1)N1C[C@H](C)N(c2nc(=O)n(C)c3c2ncn3CC2(O)CCCC2)C[C@H]1C and give its measured pIC50.
Solution: ≥ 8.00

Exercise: Consider the compound CC[C@@H]1CN(c2nc(=O)n(C)c3c2nc(C)n3C[C@@H]2CCCO2)[C@@H](C)CN1C(c1ccc(Cl)cc1)C1CC(F)(F)C1 (stereo partly drawn) and give its measured pIC50.
Solution: ≥ 8.00

Exercise: Consider the compound C[C@@H]1CN(c2nc(=O)n(C)c3c2nnn3C[C@@H]2CCCO2)[C@@H](C)CN1C(c1ccc(C(F)(F)F)cn1)c1ccc(C(F)(F)F)cn1 and give its measured pIC50.
Solution: ≥ 8.00

Exercise: Consider the compound Cc1nc2c(N3C[C@@H](C)N(C(c4ccc(F)cc4)c4ccc(F)cc4)C[C@@H]3C)nc(=O)[nH]c2n1C[C@@H]1CCCO1 and give its measured pIC50.
Solution: ≥ 7.00

Exercise: Consider the compound Cc1nc2c(N3C[C@@H](C)N([C@@H](c4ccc5ccc(C(F)(F)F)cc5n4)C(C)C)C[C@@H]3C)nc(=O)n(C)c2n1C[C@@H]1CCCO1 and give its measured pIC50.
Solution: ≥ 8.00

Exercise: Consider the compound Cc1nc2c(N3C[C@@H](C)N([C@@H](c4ccc(C(F)F)c(F)c4)C(C)C)C[C@@H]3C)nc(=O)n(C)c2n1C[C@@H]1CCCO1 and give its measured pIC50.
Solution: ≥ 8.00

Exercise: Consider the compound Cc1nc2c(N3C[C@@H](C)N(C(c4ccc(C(F)(F)F)cc4)C4CC(F)(F)C4)C[C@@H]3C)nc(=O)n(C)c2n1C[C@@H]1CCCO1 (single isomer, unassigned) and give its measured pIC50.
Solution: ≥ 8.00

Exercise: Consider the compound Cc1nc2c(N3C[C@@H](C)N(C(c4ccc(C(F)(F)F)cc4)C4CC(F)(F)C4)C[C@@H]3C)nc(=O)n(C)c2n1C[C@H]1OCC[C@@H]1O (single isomer, unassigned) and give its measured pIC50.
Solution: ≥ 8.00

Exercise: Consider the compound Cc1nc2c(N3C[C@@H](C)N([C@H](c4ccc(C(F)F)c(F)c4)C(C)C)C[C@@H]3C)nc(=O)n(C)c2n1C[C@@H]1CCCO1 and give its measured pIC50.
Solution: ≥ 8.00

Exercise: Consider the compound CC[C@@H]1CN(c2nc(=O)n(C)c3c2nnn3C[C@H]2CCCO2)[C@@H](C)CN1C(CC(C)C)c1ccc(Cl)cc1 (single isomer, unassigned) and give its measured pIC50.
Solution: ≥ 8.00

Exercise: Consider the compound CC[C@@H]1CN(c2nc(=O)n(C)c3c2nc(C)n3C[C@@H]2CCCO2)[C@@H](C)CN1[C@H](CC)c1ccc(Cl)cc1 and give its measured pIC50.
Solution: ≥ 8.00

Exercise: Consider the compound CC[C@@H]1CN(c2nc(=O)n(C)c3c2nnn3C[C@H]2CCCO2)[C@@H](C)CN1[C@H](c1ccc(Cl)cc1)[C@@H]1CC1(F)F and give its measured pIC50.
Solution: ≥ 7.00

Exercise: Consider the compound CC[C@@H]1CN(c2nc(=O)[nH]c3c2nc(C)n3C[C@@H]2CCCO2)[C@@H](C)CN1C(c1ccc(F)cc1)c1ccc(F)cc1 and give its measured pIC50.
Solution: ≥ 8.00

Exercise: Consider the compound CC[C@@H]1CN(c2nc(=O)n(C)c3c2nc(C)n3C[C@H]2OCC[C@@H]2O)[C@@H](C)CN1C(c1ccc(Cl)cc1)C1CC(F)(F)C1 (stereo partly drawn) and give its measured pIC50.
Solution: ≥ 8.00

* * *

Target: DGKζ (Homo sapiens (Human))
Assay: In vitro DGKζ inhibition assay (ADP-Glo)
Conditions: second column of Table A, head printed DGKα, presumably DGKζ; His-tagged human recombinant DGKζ 0.4 nM, 30 μM ATP, 20 μM DLG
Procedure: The DGKα and DGKζ biochemical reactions were performed using His-tagged human recombinant enzymes (Signal Chem, DGKα, #D21-10BH; DGKζ, #D30-1OH)) and DLG (Dilauroyl-sn-glycerol) lipid substrate (Signal Chem, #D430-59). […] For compound inhibition studies, 40 nL test compound in DMSO was added to wells of white polystyrene plates in 384-well (Greiner, #784075) or 1536-well format (Greiner, #782075). […] Plates were then read using Luminescence method on BMG PHERAstar FSX plate reader. […]
pIC50: −log10 of the molar value.
outcomeMeasure: pIC50

Exercise: Consider the molecule CC[C@@H]1CN(c2nc(=O)n(C)c3c2nc(C)n3C[C@@H]2CCCO2)[C@@H](C)CN1C(c1ccc(F)cc1)c1ccc(F)cc1 [Example 5] and give its measured pIC50.
Solution: ≥ 8.00

Exercise: Consider the molecule Cc1nc2c(N3C[C@@H](C)N([C@H](c4ccc(C(F)(F)F)cc4F)C(C)C)C[C@@H]3C)nc(=O)n(C)c2n1C[C@@H]1CCCO1 [Example 51] and give its measured pIC50.
Solution: ≥ 8.00

Exercise: Consider the molecule CC[C@@H]1CN(c2nc(=O)n(C)c3c2nc(C)n3C[C@@H]2CCCO2)[C@@H](C)CN1[C@H](c1ccc(C(F)(F)F)cc1)C(C)C [Example 59] and give its measured pIC50.
Solution: ≥ 8.00

Exercise: Consider the molecule Cc1nc2c(N3C[C@@H](C)N([C@@H](c4ccc5cc(F)ccc5n4)C(C)C)C[C@@H]3C)nc(=O)n(C)c2n1C[C@@H]1CCCO1 [Example 48] and give its measured pIC50.
Solution: ≥ 8.00

Exercise: Consider the molecule CC[C@@H]1CN(c2nc(=O)n(C)c3c2nc(C)n3C[C@@H]2CCCO2)[C@@H](C)CN1C(c1ccc(C(F)(F)F)cc1)C1CC(F)(F)C1 (stereo partly drawn) [Example 38] and give its measured pIC50.
Solution: ≥ 8.00

Exercise: Consider the molecule Cc1nc2c(N3C[C@@H](C)N([C@H](c4ccc(C(F)(F)F)cc4)C(C)C)C[C@@H]3C)nc(=O)n(C)c2n1C[C@@H]1CCCO1 [Example 53] and give its measured pIC50.
Solution: ≥ 7.00
